tested on: FXR:RXRa (NR concentration 270 nM, RXRa partner concentration 90 nM); test: PBM binding z-score (relative to random genomic background probes); higher = stronger binding; sequences stand for … in GC…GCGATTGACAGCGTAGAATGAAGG
Param threshold (1) applies to PBM binding z-score; output Criterion met when value >= threshold, Criterion not met when value < threshold.

{"SEQUENCE INPUT": "TAGCGTAGGTCATTGGGCCAGTATAGTACGCATC", "CATEGORY": "Criterion met"}
{"SEQUENCE INPUT": "GCTTACGGGTCAAAGGTTATAGCCTGAATAGAAT", "CATEGORY": "Criterion met"}
{"SEQUENCE INPUT": "TCAGACAGGTGAAGGTAACTTAGGTACGCAGTCG", "CATEGORY": "Criterion met"}
{"SEQUENCE INPUT": "ATATGTAAGTTATCGGGTCATTCAGTTTGCGCAT", "CATEGORY": "Criterion met"}
{"SEQUENCE INPUT": "GCTCGGAGGACAAGCTCAGAGCTTTGTCCGTAGA", "CATEGORY": "Criterion not met"}
{"SEQUENCE INPUT": "ATAAGTAGGTTACATCCGGGTCATTCAGGCTATG", "CATEGORY": "Criterion met"}
{"SEQUENCE INPUT": "CCTAGCAAGCCAGGGTCACTCAAGCATTTCGCTT", "CATEGORY": "Criterion met"}
{"SEQUENCE INPUT": "TGTCAAAGTTCAAAGGGAACGTAAGTATCCACAC", "CATEGORY": "Criterion met"}
{"SEQUENCE INPUT": "TCATATAGGTAAATGCTAGGTGTAAGTCCGATCT", "CATEGORY": "Criterion not met"}
{"SEQUENCE INPUT": "ACAGATAGGTGAGTGAAGGTAACTCAGCTGGACG", "CATEGORY": "Criterion not met"}
{"SEQUENCE INPUT": "CGAACTAGGTCATTGACAGAACAGTGAATAGTAA", "CATEGORY": "Criterion met"}
{"SEQUENCE INPUT": "ATAATGAGGTTATACGTAGATCAGGGAAGAAAGT", "CATEGORY": "Criterion met"}
{"SEQUENCE INPUT": "TTACCAAGGTGAAGGTCGTTGAACCCTCTGTAGA", "CATEGORY": "Criterion met"}
{"SEQUENCE INPUT": "ATCTCTAGGTAAGACTCAGTGCAGTGAAGAACGC", "CATEGORY": "Criterion not met"}
{"SEQUENCE INPUT": "CTACCAAGGTGACCAAGGTCGTTGATTACTATTC", "CATEGORY": "Criterion not met"}
{"SEQUENCE INPUT": "CAAACTAGGTCATTGACAGGACAGTGAATAGTAA", "CATEGORY": "Criterion met"}
{"SEQUENCE INPUT": "CGTCCAAGGTCAGAGAGGTCAGTGGATGCCGAGT", "CATEGORY": "Criterion met"}
{"SEQUENCE INPUT": "TTACCAAGGTGAGCTGATGTCGTTGATCCAACTC", "CATEGORY": "Criterion not met"}
{"SEQUENCE INPUT": "CGTCCAACGTCAAAGGTCAGTGAAGAGATGACGG", "CATEGORY": "Criterion met"}
{"SEQUENCE INPUT": "CCTTACGGGTCAATCCAGGTTATAGCATCGGAGT", "CATEGORY": "Criterion met"}
{"SEQUENCE INPUT": "AGTCTAAGTTCATCTAGGTAACGTAAGATATGCT", "CATEGORY": "Criterion met"}
{"SEQUENCE INPUT": "GCGACTGGGGCAAAGCATGTTACCATAAGGTTGG", "CATEGORY": "Criterion not met"}
{"SEQUENCE INPUT": "CCTCGGAGGACAGAAGGTCAGGGCTGTCCGCTTT", "CATEGORY": "Criterion met"}
{"SEQUENCE INPUT": "CGTCCAAGGTCAGCAGGGCAGTGAAAGCGACGTG", "CATEGORY": "Criterion met"}
{"SEQUENCE INPUT": "GCTCGGAGTACAAGGTCAGAGCTTTGTCCGTAGA", "CATEGORY": "Criterion met"}
{"SEQUENCE INPUT": "TCTATTACTTGATTAGGGCAACCGAAACAGCGGA", "CATEGORY": "Criterion not met"}
{"SEQUENCE INPUT": "TCTCGGAGGACACGAAGGGTCAGAGCTCGACATC", "CATEGORY": "Criterion met"}
{"SEQUENCE INPUT": "GTACCAAGGTGAATAGGTCGTTGAGGAGTAGGCG", "CATEGORY": "Criterion not met"}
{"SEQUENCE INPUT": "TGAATGAGGTTATAAGATTAGGGAACGTTGCAAA", "CATEGORY": "Criterion met"}
{"SEQUENCE INPUT": "TCTGCTAGGTCCACGATGGTCAGCTAATCTGCTA", "CATEGORY": "Criterion not met"}
{"SEQUENCE INPUT": "AGAATGAGTTTATACGTAGATCAGGGAAGAAAGT", "CATEGORY": "Criterion not met"}
{"SEQUENCE INPUT": "CCAGACAGGTTAGAAGGTAACTCAGCCTCGATTA", "CATEGORY": "Criterion not met"}
{"SEQUENCE INPUT": "CGACCAAGGTCATAGGAGGTCAGTGAAGACAGAT", "CATEGORY": "Criterion met"}
{"SEQUENCE INPUT": "CGCACGAGGGCATGAGTTGATAGCAAATGCCGAT", "CATEGORY": "Criterion not met"}
{"SEQUENCE INPUT": "GGTACAGGGTCAGCTAGAGGCCAGAGTATGGAAA", "CATEGORY": "Criterion met"}
{"SEQUENCE INPUT": "AATACAGGGTCACTCGGCCAGAGTAGGTACGAAT", "CATEGORY": "Criterion met"}
{"SEQUENCE INPUT": "CGTCCAAGGTCAGAGAGGTCAGAGAATGCCGAGT", "CATEGORY": "Criterion met"}
{"SEQUENCE INPUT": "CAAGACAGGTGAGAAGGTAACTCAGCCTCGATTA", "CATEGORY": "Criterion not met"}
{"SEQUENCE INPUT": "GGAACGAGCGCAAGTTGATAGCAGAGTTTGATGG", "CATEGORY": "Criterion not met"}
{"SEQUENCE INPUT": "TAGCCTAGGTCATTGGGCGAGTATAGTACGCATC", "CATEGORY": "Criterion met"}
{"SEQUENCE INPUT": "TCTCTGAGGACACGAAGGTCAGAGCTTTCCAGAG", "CATEGORY": "Criterion met"}
{"SEQUENCE INPUT": "CCGACTGGTGCAAAGGTTACCATACTCAGTACGA", "CATEGORY": "Criterion not met"}
{"SEQUENCE INPUT": "CAGCCTAGGTCAGGGTCAGTATAGGAGGAACGTT", "CATEGORY": "Criterion met"}
{"SEQUENCE INPUT": "TTACCAACGTGAAGGTCGTTGATCCCTCTGTAGA", "CATEGORY": "Criterion met"}
{"SEQUENCE INPUT": "CGTACAAGGTCAATGCTAGGTCAGTGAAAGCATT", "CATEGORY": "Criterion met"}
{"SEQUENCE INPUT": "CGTCCAAGGTCAGAGGAGGTCAGTGAAGACAGAT", "CATEGORY": "Criterion met"}
{"SEQUENCE INPUT": "ACGGACAGGTGAGTGAAGGTAACTCAGCTGGACG", "CATEGORY": "Criterion not met"}
{"SEQUENCE INPUT": "GCTCGCAGGACAAGGTCAGAGCTTTGTCCGTAGA", "CATEGORY": "Criterion met"}
{"SEQUENCE INPUT": "TCAGACAGGTGAAGATAACTCAGGTACGCAGTCG", "CATEGORY": "Criterion not met"}
{"SEQUENCE INPUT": "ACTCGCAGGCCAAGGGTCACTCAAGATTAGTCCG", "CATEGORY": "Criterion met"}
{"SEQUENCE INPUT": "TCTCGGAGGATACGAAGGTCAGAGCTTTCCAGAG", "CATEGORY": "Criterion not met"}
